These data points were gathered from PubChem BioAssay AID1852.

- experiment-notes: TNF-a-driven NF-kB reporter inhibitors, primary screen, selectivity assay for NOD1/NOD2 signaling inhibitor project, cell-based, HEK293T NF-kB-Luc, luminescence (AID 1852)
- experimental-context: TNF-a induced, 14 h, at 4 µM
In all, about 2,500 compounds went through this assay and about 1,100 (44%) were called active.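 The calls were made as follows: active = inhibition above 50% at 4 µM in the single-point screen; inactive = inhibition of 50% or less.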 The set was probably picked from earlier hits. The list shows a part of the results.
Your answer must be one of the following: class 1 for active, class 0 for inactive

// below: answered molecules
### Prompt Please let me know the test result on file for `COc1ccc(C)cc1NC(=O)CSc1ccc(-c2ccccn2)nn1` .
### Response class 1

### Prompt Also `COC(=O)C(=Cc1ccc(OCc2ccc([N+](=O)[O-])cc2)c(OC)c1)C(=O)OC` , if possible.
### Response class 0

### Prompt Check `CN(C)/C=C/C(=O)c1ccc2noc(-c3ccccc3)c2c1` too.
### Response class 0

### Prompt Entry to check: `COc1ccc2cc(C(N)=O)c(=Nc3ccc(C)cc3)oc2c1`
### Response class 1

### Prompt Next up: `COc1ccc(C)cc1NC(=O)CSc1ccc(-c2ccco2)nn1`
### Response class 0

New cases:
### Prompt Hey, what did the test say about `CSc1cccc(NS(=O)(=O)c2ccc3c(c2)CCN3C(C)=O)c1` ?
### Response class 0
